Property: clearance; scope: individual compounds
# Assay: Pharmacokinetic experiments in ICR mice (plasma)
# Format: in vivo
# Condition context: mouse, single intravenous injection 2 mg/kg, plasma
Quantity name: clearance (mL/min/kg)

compound="CNC(=O)c1ncc(-c2cc3c(cc2OC)-c2cc(=O)c(C(=O)O)cn2C(C(C)(C)C)C3)s1 (centres unmarked)" measurement=27.6
compound="COCc1ncc(-c2cc3c(cc2OC)-c2cc(=O)c(C(=O)O)cn2C(C(C)(C)C)C3)s1 (centres unmarked)" measurement=41.4

----------
# Assay: Pharmacokinetic experiments in ICR mice (plasma)
# Assay type: in vivo
# Condition context: mouse, single intravenous injection 2 mg/kg, plasma, read-out: AUC0-12
Documented AUC(0-t) across a set of molecules
Quantity name: AUC(0-t) (ng·h/mL)

molecule="CNC(=O)c1ncc(-c2cc3c(cc2OC)-c2cc(=O)c(C(=O)O)cn2C(C(C)(C)C)C3)s1 (centres unmarked) [Example 19]" measure_unit=ng·h/mL measurement=1200
molecule="COCc1ncc(-c2cc3c(cc2OC)-c2cc(=O)c(C(=O)O)cn2C(C(C)(C)C)C3)s1 (centres unmarked) [Example 10]" measure_unit=ng·h/mL measurement=796
